System: PANC-1 cell line
Test: solid tumor cell growth inhibition, MTT
Format: cell-based
Settings: Homo sapiens; PANC-1, 16 μg/mL compound, 72 h; read-out: IR (cell proliferation inhibition rate)
Would you mind telling me the reported inhibition at 16 µg/mL of each entry?
Write it as a number; the unit % goes unstated.

Prompt line: Dear colleague, I am looking for the recorded inhibition at 16 µg/mL of the following molecule: COC(=O)[C@]12CCC(C)(C)CC1C1=CCC3[C@@]4(C)CC(C(=O)NC5CC5)C(=O)C(C)(C)C4CC[C@@]3(C)[C@]1(C)CC2 (some centres unmarked)
Response line: -9.9

Prompt line: Dear colleague, I am looking for the recorded inhibition at 16 µg/mL of the following molecule: COC(=O)[C@]12CCC(C)(C)CC1C1=CCC3[C@@]4(C)CC(C(=O)NCCCN5CCOCC5)C(=O)C(C)(C)C4CC[C@@]3(C)[C@]1(C)CC2 (some centres unmarked)
Response line: 11.3

Prompt line: Dear colleague, I am looking for the recorded inhibition at 16 µg/mL of the following molecule: COCCCNC(=O)C1C[C@]2(C)[C@H]3CC=C4[C@@H]5CC(C)(C)CC[C@]5(C(=O)OC)CC[C@@]4(C)[C@]3(C)CC[C@H]2C(C)(C)C1=O (some centres unmarked)
Response line: 8.4

Prompt line: Dear colleague, I am looking for the recorded inhibition at 16 µg/mL of the following molecule: CC1(C)CC[C@]2(C(=O)O)CC[C@]3(C)C(=CC[C@@H]4[C@@]5(C)CC[C@H](O)C(C)(C)[C@@H]5CC[C@]43C)[C@@H]2C1
Response line: 8.5

Prompt line: Dear colleague, I am looking for the recorded inhibition at 16 µg/mL of the following molecule: CCOCCNC(=O)C1C[C@@]2(C)C(CC[C@]3(C)C2CC=C2C4CC(C)(C)CC[C@]4(C(=O)OC)CC[C@]23C)C(C)(C)C1=O (some centres unmarked)
Response line: -3.3

FYI, the data here is from patent US9156801B2.
